Biological target: UniProtKB Q9JIM1
Assay: Adenosine transport activity (ENT1, [3H]-adenosine uptake)
Conditions: stable cells expressing mouse ENT-1; [2,8-3H]-adenosine 6 nM, 20 min
I'd appreciate it if you could supply IC50 values for the items below.
Numbers only, in nM.

Study these solved cases before continuing.
- mol: "Cc1ncc(-c2ccc3c(c2)N(c2cncc(C(=O)NC4COC4)n2)C(=O)C3(C)C)cn1"
  IC50, nM: 319
- mol: "Cc1ncc(-c2ccc3c(c2)N(c2ccc(C(=O)N(C)C)cn2)C(=O)C3(C)C)cn1"
  IC50, nM: 585
- mol: "Cc1ncc(-c2ccc3c(c2)N(c2cncc(C(N)=O)n2)C(=O)C3(C)C)cn1"
  IC50, nM: 197

Give the measured IC50 of CNC(=O)c1nccc(N2C(=O)C(C)(C)c3ccc(-c4cnc(C)nc4)cc32)n1 .
120

====

Target: mouse ENT-1 transporter (Mus musculus, UniProt Q9JIM1)
Test: Adenosine transport activity (ENT1, [3H]-adenosine uptake)
Conditions: stable cells expressing mouse ENT-1; [2,8-3H]-adenosine 6 nM, 20 min
parameterMeasured: IC50 (nM)
One number for each entry, in nM.

Study these solved cases before continuing.
- mol: "Cc1ncc(-c2ccc3c(c2)N(c2cncc(C(=O)N(C)CC(F)(F)F)n2)C(=O)C3(C)C)cn1"
  measured: 513
- mol: "Cc1ncc(-c2ccc3c(c2)N(c2cncc(C(=O)NCCO)n2)C(=O)C3(C)C)cn1"
  measured: 30
- mol: "Cc1ncc(-c2ccc3c(c2)N(c2cnc(C(=O)N4CCC4)cn2)C(=O)C3(C)C)cn1"
  measured: 767
- mol: "Cc1ncc(-c2ccc3c(c2)N(c2cnc(C(N)=O)cn2)C(=O)C3(C)C)cn1"
  measured: 391
- mol: "Cc1ncc(-c2ccc3c(c2)N(c2cncc(C(=O)NC4CCC4)n2)C(=O)C3(C)C)cn1"
  measured: 129

# per-item lookup of IC50; items listed below
1. Cc1ncc(-c2ccc3c(c2)N(c2cncc(C(=O)NC(C)C)n2)C(=O)C3(C)C)cn1
2. Cc1ncc(-c2ccc3c(c2)N(c2cccc(C(=O)N(C)C)n2)C(=O)C3(C)C)cn1
3. Cc1ncc(-c2ccc3c(c2)N(c2cncc(C(=O)NC4CC(F)(F)C4)n2)C(=O)C3(C)C)cn1

[196, 374, 323]

====

I'd appreciate it if you could supply IC50 values for the items below.
Target: mouse ENT-1 transporter (Mus musculus)
Sequence (Q9JIM1 1-460): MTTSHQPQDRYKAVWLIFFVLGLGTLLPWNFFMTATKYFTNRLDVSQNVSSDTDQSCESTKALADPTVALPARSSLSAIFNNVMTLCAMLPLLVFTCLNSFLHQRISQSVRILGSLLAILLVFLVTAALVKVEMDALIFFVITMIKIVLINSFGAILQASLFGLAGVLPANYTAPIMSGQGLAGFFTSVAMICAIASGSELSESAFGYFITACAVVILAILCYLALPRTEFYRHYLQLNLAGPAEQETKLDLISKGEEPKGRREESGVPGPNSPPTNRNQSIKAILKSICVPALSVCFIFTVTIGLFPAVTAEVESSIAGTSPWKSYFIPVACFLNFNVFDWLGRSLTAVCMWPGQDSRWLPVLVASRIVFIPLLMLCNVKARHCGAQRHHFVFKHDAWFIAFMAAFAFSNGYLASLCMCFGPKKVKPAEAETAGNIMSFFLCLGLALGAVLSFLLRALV
Assay: Adenosine transport activity (ENT1, [3H]-adenosine uptake)
Settings: stable cells expressing mouse ENT-1; [2,8-3H]-adenosine 6 nM, 20 min
Answers are plain numbers, in µM.

- mol: "Cc1ncc(-c2ccc3c(c2)N(c2cnc(C(=O)N(C)C)cn2)C(=O)C3(C)C)cn1"
  IC50, µM: 0.123
- mol: "CNC(=O)c1cncc(N2C(=O)C(C)(C)c3ccc(-c4cnc(C)nc4)cc32)n1"
  IC50, µM: 0.028
- mol: "Cc1ncc(-c2ccc3c(c2)N(c2cncc(C(=O)NCC(F)(F)F)n2)C(=O)C3(C)C)cn1"
  IC50, µM: 0.451
- mol: "CNC(=O)c1nc(N2C(=O)C(C)(C)c3ccc(-c4cnc(C)nc4)cc32)cn1C"
  IC50, µM: 0.021
- mol: "Cc1ncc(-c2ccc3c(c2)N(c2cn(C)c(C(=O)N(C)C)n2)C(=O)C3(C)C)cn1"
  IC50, µM: 0.0469
- mol: "CNC(=O)c1nc(N2C(=O)C(C)(C)c3ccc(-c4cnc(C)nc4)cc32)ncc1C"
  IC50, µM: 0.0784
- mol: "Cc1ncc(-c2ccc3c(c2)N(c2cncc(C(=O)NC(C)(C)C)n2)C(=O)C3(C)C)cn1"
  IC50, µM: 0.243
- mol: "Cc1ncc(-c2ccc3c(c2)N(c2cncc(C(=O)N(C)C)n2)C(=O)C3(C)C)cn1"
  IC50, µM: 0.0195

# per-item lookup of IC50; items listed below
1. Cc1ncc(-c2ccc3c(c2)N(c2ccc(C)c(C(=O)N(C)C)n2)C(=O)C3(C)C)cn1
2. CNC(=O)c1ccnc(N2C(=O)C(C)(C)c3ccc(-c4cnc(C)nc4)cc32)n1
3. CNC(=O)c1cc(N2C(=O)C(C)(C)c3ccc(-c4cnc(C)nc4)cc32)ccn1
4. Cc1ncc(-c2ccc3c(c2)N(c2ccc4c(n2)C(=O)NC4(C)C)C(=O)C3(C)C)cn1
5. COCCN(C)C(=O)c1cncc(N2C(=O)C(C)(C)c3ccc(-c4cnc(C)nc4)cc32)n1

1: 0.351; 2: 0.241; 3: 0.534; 4: 0.239; 5: 0.382

====

Biological target: mouse ENT-1 transporter (Mus musculus)
Assay: Adenosine transport activity (ENT1, [3H]-adenosine uptake)
Details: stable cells expressing mouse ENT-1; [2,8-3H]-adenosine 6 nM, 20 min
parameterMeasured: IC50 (nM)
Answers are plain numbers, in nM.

Study these solved cases before continuing.
- mol: "Cc1ncc(-c2ccc3c(c2)N(c2cnc(C(=O)N(C)C(C)(C)C)cn2)C(=O)C3(C)C)cn1"
  IC50 [nM]: 927
- mol: "COCCN(C)C(=O)c1cnc(N2C(=O)C(C)(C)c3ccc(-c4cnc(C)nc4)cc32)cn1"
  IC50 [nM]: 186
- mol: "Cc1ncc(-c2ccc3c(c2)N(c2cncc(C(=O)NCC(F)(F)F)c2)C(=O)C3(C)C)cn1"
  IC50 [nM]: 477

Now let's try a different one.
What is its IC50 for mouse ENT-1 transporter (Mus musculus)? Entry: Cc1ncc(-c2ccc3c(c2)N(c2cncc(C(=O)N4CCC4)c2)C(=O)C3(C)C)cn1
202

====

I'd appreciate it if you could supply pIC50 values for the items below.
Target: mouse ENT-1 transporter (Mus musculus, UniProt Q9JIM1)
Assay: Adenosine transport activity (ENT1, [3H]-adenosine uptake)
Settings: stable cells expressing mouse ENT-1; [2,8-3H]-adenosine 6 nM, 20 min
Answers are plain numbers, as −log10 of the molar value.

- compound: "CNC(=O)c1cc(N2C(=O)C(C)(C)c3ccc(-c4cnc(C)nc4)cc32)cc(C)n1 [Example 34]"
  measuredTarget: "mouse ENT-1 transporter (Mus musculus, UniProt Q9JIM1)"
  measured: 5.94
- compound: "Cc1ncc(-c2ccc3c(c2)N(c2cccc(C(=O)NC4CC4)n2)C(=O)C3(C)C)cn1 [Example 24]"
  measuredTarget: "mouse ENT-1 transporter (Mus musculus, UniProt Q9JIM1)"
  measured: 7.34
- compound: "CNC(=O)c1nc(N2C(=O)C(C)(C)c3ccc(-c4cnc(C)nc4)cc32)ccc1C [Example 27]"
  measuredTarget: "mouse ENT-1 transporter (Mus musculus, UniProt Q9JIM1)"
  measured: 7.83
- compound: "Cc1ncc(-c2ccc3c(c2)N(c2nccc(C(=O)N(C)C)n2)C(=O)C3(C)C)cn1 [Example 17]"
  measuredTarget: "mouse ENT-1 transporter (Mus musculus, UniProt Q9JIM1)"
  measured: 6.27
- compound: "COCCNC(=O)c1cncc(N2C(=O)C(C)(C)c3ccc(-c4cnc(C)nc4)cc32)n1 [Example 7]"
  measuredTarget: "mouse ENT-1 transporter (Mus musculus, UniProt Q9JIM1)"
  measured: 7.05

# per-item lookup of pIC50; items listed below
1. CNC(=O)c1cccc(N2C(=O)C(C)(C)c3ccc(-c4cnc(C)nc4)cc32)n1 [Example 22]
2. CNC(=O)c1cncc(N2C(=O)C(C)(C)c3ccc(-c4cnc(C)nc4)cc32)c1 [Example 33]
3. Cc1ncc(-c2ccc3c(c2)N(c2ccc4c(c2)C(=O)N(C)C4)C(=O)C3(C)C)cn1 [Example 37]
4. Cc1ncc(-c2ccc3c(c2)N(c2cncc(C(=O)N4CCC4)n2)C(=O)C3(C)C)cn1 [Example 3]

[8.07, 6.25, 6.18, 7.50]

# per-item lookup of pIC50; items listed below
1. Cc1ncc(-c2ccc3c(c2)N(c2cccc(C(N)=O)n2)C(=O)C3(C)C)cn1 [Example 26]
2. Cc1ncc(-c2ccc3c(c2)N(c2cncc(C(=O)N(C)C)c2)C(=O)C3(C)C)cn1 [Example 30]
3. Cc1ncc(-c2ccc3c(c2)N(c2cncc(C(=O)NC4CC4)n2)C(=O)C3(C)C)cn1 [Example 39]
4. Cc1ncc(-c2ccc3c(c2)N(c2ccc(C(=O)N(C)C)nn2)C(=O)C3(C)C)cn1 [Example 21]
5. Cc1ncc(-c2ccc3c(c2)N(c2cccc(C(=O)NCC4CC4)n2)C(=O)C3(C)C)cn1 [Example 25]
6. Cc1ncc(-c2ccc3c(c2)N(c2ccnc(C(=O)N(C)C)n2)C(=O)C3(C)C)cn1 [Example 19]
7. Cc1ncc(-c2ccc3c(c2)N(c2cnc4c(c2)C(=O)N(C)C4)C(=O)C3(C)C)cn1 [Example 36]

1: 6.60; 2: 6.22; 3: 7.12; 4: 6.02; 5: 7.30; 6: 6.14; 7: 6.20
